Source: paper PMC11602988

Biological target: OCT1 Phe244Ala variant (Homo sapiens, UniProt O15245, F244A)
Assay: Uptake screening (transport ratio over empty vector), HEK293 cells overexpressing OCT1 Phe244Ala variant;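 note: stably transfected HEK293 cells, intracellular substrate quantified by HPLC-tandem mass spectrometry in cell lysates, uptake in HBSS+ buffer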
Assay type: cell-based
Set-up: expressed in transfected cells
Details: Phe244Ala uptake relative to WT
OUTCOME MEASURE: relative_Phe244Ala_uptake_in% (%)

{"COMPOUND": "C[N+]1(C)CCN(c2ccccc2)CC1", "MEASURED VALUE": 70.889}
{"COMPOUND": "CCN1CCCC1CNC(=O)c1cc(S(=O)(=O)CC)c(N)cc1OC (centres unmarked) [Amisulpride]", "MEASURED VALUE": 97.893}
{"COMPOUND": "CC[N+](CC)(CC(=O)Nc1c(C)cccc1C)Cc1ccccc1", "MEASURED VALUE": 121.267}
{"COMPOUND": "CN(C)c1ccc(/C=C/c2cc[n+](C)cc2)cc1", "MEASURED VALUE": 62.977}
{"COMPOUND": "N=C(N)N1CCc2ccccc2C1", "MEASURED VALUE": 108.342}
{"COMPOUND": "CC(C)(C)NCC(O)COc1cccc2c1CCC(=O)N2 (centres unmarked)", "MEASURED VALUE": 315.540}
{"COMPOUND": "CCNCC(O)c1cccc(O)c1 (centres unmarked)", "MEASURED VALUE": 39.917}
{"COMPOUND": "Cc1cc(N)c(OC(C)C)cc1C1CCNCC1", "MEASURED VALUE": 149.293}
{"COMPOUND": "Nc1ccncc1N", "MEASURED VALUE": 7.302}
{"COMPOUND": "NC(N)=NC(N)=Nc1ccc(Cl)cc1", "MEASURED VALUE": 76.322}
{"COMPOUND": "Nc1nc(=O)n([C@@H]2CS[C@H](CO)O2)cc1F", "MEASURED VALUE": 51.794}
